# key: entry, value: FIR K562
- Test system: K562 cells
- experimental.protocol: Doxorubicin intracellular accumulation assay (flow cytometry) in K562
- Format: cell-based
- Design: key: MFI with inhibitor / MFI of Dox alone
- condition.details: compound 10 µM; 5 μM Dox
Give a plain numeric answer without units written out.

Worked cases, answers included:
c1ccc2cc(-c3ccnc(N4CCNCC4)n3)ccc2c1 = 1.10
NCCN1CCN(c2nccc(-c3ccc(Cl)cc3)n2)CC1 = 0.98
NCCN1CCN(c2nccc(-c3ccc4ccccc4c3)n2)CC1 [Compound 10a] = 1.13
COc1cc2cc(COc3nccc(-c4ccc(Cl)cc4)n3)c(=O)[nH]c2cc1OC = 1.01

Request: Name the reported FIR K562 value associated with the molecule "Clc1ccc(-c2ccnc(N3CCNCC3)n2)cc1"
Response: 1.19
